IC50 values for the molecules below.
Target: MERTK (Homo sapiens, UniProt Q12866)
Sequence (Q12866 21-999): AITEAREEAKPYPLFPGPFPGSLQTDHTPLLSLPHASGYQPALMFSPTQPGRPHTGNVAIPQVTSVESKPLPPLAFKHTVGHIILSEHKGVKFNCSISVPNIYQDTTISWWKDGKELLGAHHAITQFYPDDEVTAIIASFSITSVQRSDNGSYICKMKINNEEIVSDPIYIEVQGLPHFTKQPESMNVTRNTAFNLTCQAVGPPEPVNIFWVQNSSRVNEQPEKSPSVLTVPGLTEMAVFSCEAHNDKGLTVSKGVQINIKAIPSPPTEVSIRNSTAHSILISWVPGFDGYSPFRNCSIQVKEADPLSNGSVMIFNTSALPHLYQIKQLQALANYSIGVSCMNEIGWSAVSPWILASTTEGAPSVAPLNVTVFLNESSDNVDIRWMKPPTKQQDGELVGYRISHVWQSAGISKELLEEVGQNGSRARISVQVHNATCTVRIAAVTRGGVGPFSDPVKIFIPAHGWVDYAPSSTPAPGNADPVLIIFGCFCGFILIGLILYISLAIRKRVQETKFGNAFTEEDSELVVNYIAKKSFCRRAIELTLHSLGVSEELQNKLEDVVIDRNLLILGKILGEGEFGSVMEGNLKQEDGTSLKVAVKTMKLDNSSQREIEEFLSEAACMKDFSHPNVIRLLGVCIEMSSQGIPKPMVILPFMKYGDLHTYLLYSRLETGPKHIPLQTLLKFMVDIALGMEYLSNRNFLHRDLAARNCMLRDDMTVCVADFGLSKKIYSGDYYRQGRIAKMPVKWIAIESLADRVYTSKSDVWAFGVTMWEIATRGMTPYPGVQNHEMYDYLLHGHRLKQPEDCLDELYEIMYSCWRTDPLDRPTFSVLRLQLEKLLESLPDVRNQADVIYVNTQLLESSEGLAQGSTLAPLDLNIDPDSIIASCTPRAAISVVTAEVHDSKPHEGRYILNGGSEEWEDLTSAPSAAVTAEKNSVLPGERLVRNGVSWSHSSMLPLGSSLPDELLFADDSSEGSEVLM
Experiment: MERTK enzymatic assay (Kinase Glo)
Format: biochemical
Details: purified kinase, ATP 12 μM, read-out: MER Enzymatic Inhibition (%)

Past entries and their recorded results:
> print(dat)
                            chemical.string  property.measured  measured.result
1  CCNc1cccc(-c2c(-c3cnn(C)c3)oc3ncnc(Oc4ccc(NC(=O)c5cn(C)n(-c6ccc(F)cc6)c5=O)cc4)c23)c1               IC50  100 to 50000 nM
2  CN(C)Cc1cccc(-c2n[nH]c3ncnc(Oc4ccc(NC(=O)c5cccn(-c6ccc(F)cc6)c5=O)cc4)c23)c1               IC50     20 to 100 nM
3  Cn1cc(-c2oc3ncnc(Oc4ccc(NC(=O)c5cccn(-c6ccc(F)c(Cl)c6)c5=O)cc4)c3c2-c2cccc(N)c2)cn1               IC50     20 to 100 nM

In: What value of IC50 has been reported for the following molecule? `O=C(Nc1ccc(Oc2ncnc3[nH]cc(C#Cc4ccccc4)c23)cc1)c1cccn(-c2ccc(F)cc2)c1=O`
Out: 100 to 50000 nM

###

Target: MERTK (Homo sapiens, UniProt Q12866)
Assay: MERTK enzymatic assay (Kinase Glo)
Type: biochemical
Settings: purified kinase, ATP 12 μM, read-out: MER Enzymatic Inhibition (%)
PROPERTY_MEASURED: IC50

Past entries and their recorded results:
> print(dat)
                            chemical.string  measured.result
1  O=C(Nc1ccc(Oc2nc(Cl)nc3[nH]ccc23)cc1)c1cccn(-c2ccc(F)cc2)c1=O  100 to 50000 nM
2  O=C(Nc1ccc(Oc2ncnc3[nH]cc(-c4ccccc4)c23)cc1)c1cccn(-c2ccc(F)cc2)c1=O     20 to 100 nM
3  O=C(Nc1ccc(Oc2ncnc3[nH]c(-c4ccccc4)cc23)cc1)c1cccn(-c2ccc(F)cc2)c1=O  100 to 50000 nM
4  CCOc1ccn(-c2ccc(F)cc2)c(=O)c1C(=O)Nc1ccc(Oc2ncnc3oc(-c4cnn(C)c4)c(-c4cccc(N)c4)c23)cc1     20 to 100 nM
5  CN(C(=O)c1cccn(-c2ccc(F)cc2)c1=O)c1ccc(Oc2ncnc3oc(-c4cnn(C)c4)c(-c4cccc(N(C)S(C)(=O)=O)c4)c23)cc1  100 to 50000 nM
6  CC(=O)Nc1cccc(-c2c(-c3ccsc3)oc3ncnc(Oc4ccc(NC(=O)c5cccn(-c6ccc(F)cc6)c5=O)cc4)c23)c1  100 to 50000 nM
7  Cn1cc(-c2oc3ncnc(Oc4ccc(NC(=O)c5cccn(-c6ccc(F)cc6)c5=O)cc4)c3c2-c2cccc(NS(C)(=O)=O)c2)cn1     20 to 100 nM
8  Nc1cccc(-c2c[nH]c3ncnc(Nc4ccc(NC(=O)c5cccn(-c6ccc(F)cc6)c5=O)cc4)c23)c1  100 to 50000 nM

In: What value of IC50 has been reported for the following molecule? `Cn1cc(-c2oc3ncnc(Oc4ccc(NC(=O)c5cccn(-c6cccc(F)c6)c5=O)cc4)c3c2-c2cccc(N)c2)cn1`
Out: 20 to 100 nM

In: What value of IC50 has been reported for the following molecule? `Cn1cc(-c2oc3ncnc(Oc4ccc(NC(=O)c5cccn(-c6ccc(F)cc6F)c5=O)cc4)c3c2-c2cccc(N)c2)cn1`
Out: 20 to 100 nM

In: What value of IC50 has been reported for the following molecule? `Cn1cc(-c2oc3ncnc(Oc4ccc(NC(=O)c5cn(C)n(-c6ccc(F)cc6)c5=O)cc4)c3c2-c2cccc(CN3CCOCC3)c2)cn1`
Out: 100 to 50000 nM

In: What value of IC50 has been reported for the following molecule? `Cn1cc(-c2oc3ncnc(Oc4ccc(NC(=O)c5cn(C)n(-c6ccc(F)cc6)c5=O)cc4)c3c2-c2ccccc2N)cn1`
Out: 100 to 50000 nM

In: What value of IC50 has been reported for the following molecule? `Cn1cc(-c2oc3ncnc(Oc4ccc(NC(=O)c5cccn(C)c5=O)cc4)c3c2-c2cccc(N)c2)cn1`
Out: 100 to 50000 nM

In: What value of IC50 has been reported for the following molecule? `Cn1cc(-c2oc3ncnc(Oc4ccc(NC(=O)c5cn(C)n(-c6ccc(F)cc6)c5=O)cc4)c3c2-c2cccc(N3CCCCC3=O)c2)cn1`
Out: 100 to 50000 nM
